- System: 171881-019-R-J1-PDC complex spheroid growth, % test/control
- assay.remarks: Anticancer human tumor 171881-019-R-J1-PDC patient-derived invasive breast carcinoma cell line growth inhibition [Asc]
- recorded.conditions: second compound 3 µM; first compound 3.16 µM; active compounds read low
- Source text: Multicellular complex tumor spheroid response to apoptosis pathway targeting inhibitors Alrizomadlin, Pelcitoclax, and Dasminapant in combination with a variety of drugs and investigational agents in selected tumor cell lines […] Compounds. […] If the clinical Cmax for an agent had not been determined, the highest concentration tested was 10 microM. […]
Entries annotated with measured viability, T/C
measurement.name: viability, T/C (%)

| compound | measurement.name | unit.spec | numeric.value |
| --- | --- | --- | --- |
| O=C(c1cc(Cc2n[nH]c(=O)c3ccccc23)ccc1F)N1CCN(C(=O)C2CC2)CC1 + CCN1C(C(=O)NC23CCC(C(=O)O)(CC2)CC3)C(c2cccc(Cl)c2F)C2(C(=O)Nc3cc(Cl)ccc32)C12CCCCC2 | viability, T/C | % | 113 |
| C=CC(=O)N1CCN(c2nc(=O)n(-c3c(C)ccnc3C(C)C)c3nc(-c4c(O)cccc4F)c(F)cc23)C(C)C1 (centres undefined) + CCN1C(C(=O)NC23CCC(C(=O)O)(CC2)CC3)C(c2cccc(Cl)c2F)C2(C(=O)Nc3cc(Cl)ccc32)C12CCCCC2 | viability, T/C | % | 99.8 |
| C=C(F)C(=O)N1CCN(c2nc(OCC3CCCN3C)nc3c2CCN(c2cccc4cccc(Cl)c24)C3)CC1CC#N (centres undefined) + CCN1C(C(=O)NC23CCC(C(=O)O)(CC2)CC3)C(c2cccc(Cl)c2F)C2(C(=O)Nc3cc(Cl)ccc32)C12CCCCC2 | viability, T/C | % | 128 |
| C#Cc1c(F)ccc2cc(O)cc(-c3ncc4c(N5CC6CCC(C5)N6)nc(OCC56CCCN5CC(F)C6)nc4c3F)c12 (centres undefined) + CCN1C(C(=O)NC23CCC(C(=O)O)(CC2)CC3)C(c2cccc(Cl)c2F)C2(C(=O)Nc3cc(Cl)ccc32)C12CCCCC2 | viability, T/C | % | 172 |

###

- Tested on: 171881-019-R-J1-PDC complex spheroid growth, % test/control
- assay.remarks: Anticancer human tumor 171881-019-R-J1-PDC cell line growth inhibition [Asc]; active means viability on the fitted dose curve at most 10% of control; inactive means the rest;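 note: spheroids exposed to compounds for 7 days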
- recorded.conditions: second compound 0.949 µM; first compound 1 µM
Labels: active, inactive

| molecule | assigned.category |
| --- | --- |
| CCN1CCN(Cc2ccc(Nc3ncc(F)c(-c4cc(F)c5nc(C)n(C(C)C)c5c4)n3)nc2)CC1 + CCN1C(C(=O)NC23CCC(C(=O)O)(CC2)CC3)C(c2cccc(Cl)c2F)C2(C(=O)Nc3cc(Cl)ccc32)C12CCCCC2 | inactive |
| C=C(F)C(=O)N1CCN(c2nc(OCC3CCCN3C)nc3c2CCN(c2cccc4cccc(Cl)c24)C3)CC1CC#N (stereo not drawn) + CCN1C(C(=O)NC23CCC(C(=O)O)(CC2)CC3)C(c2cccc(Cl)c2F)C2(C(=O)Nc3cc(Cl)ccc32)C12CCCCC2 | inactive |
| CNC(C)C(=O)NC1CN(S(=O)(=O)c2cccc(S(=O)(=O)N3CCC4CCC(C(=O)NC(c5ccccc5)c5ccccc5)N4C(=O)C(NC(=O)C(C)NC)C3)c2)CCC2CCC(C(=O)NC(c3ccccc3)c3ccccc3)N2C1=O (stereo not drawn) + CCN1C(C(=O)NC23CCC(C(=O)O)(CC2)CC3)C(c2cccc(Cl)c2F)C2(C(=O)Nc3cc(Cl)ccc32)C12CCCCC2 | inactive |
| COc1c(OCCCN2CCOCC2)ccc2c3n(c(=NC(=O)c4cnc(N)nc4)nc12)CCN3 + CCN1C(C(=O)NC23CCC(C(=O)O)(CC2)CC3)C(c2cccc(Cl)c2F)C2(C(=O)Nc3cc(Cl)ccc32)C12CCCCC2 | active |
| O=C(c1cc(Cc2n[nH]c(=O)c3ccccc23)ccc1F)N1CCN(C(=O)C2CC2)CC1 + CCN1C(C(=O)NC23CCC(C(=O)O)(CC2)CC3)C(c2cccc(Cl)c2F)C2(C(=O)Nc3cc(Cl)ccc32)C12CCCCC2 | inactive |
| O=C(c1ccc(F)c(F)c1Nc1ccc(I)cc1F)N1CC(O)([C@@H]2CCCCN2)C1 + CCN1C(C(=O)NC23CCC(C(=O)O)(CC2)CC3)C(c2cccc(Cl)c2F)C2(C(=O)Nc3cc(Cl)ccc32)C12CCCCC2 | inactive |
| C=CC(=O)N1CCN(c2nc(=O)n(-c3c(C)ccnc3C(C)C)c3nc(-c4c(O)cccc4F)c(F)cc23)C(C)C1 (stereo not drawn) + CCN1C(C(=O)NC23CCC(C(=O)O)(CC2)CC3)C(c2cccc(Cl)c2F)C2(C(=O)Nc3cc(Cl)ccc32)C12CCCCC2 | inactive |
| C#Cc1c(F)ccc2cc(O)cc(-c3ncc4c(N5CC6CCC(C5)N6)nc(OCC56CCCN5CC(F)C6)nc4c3F)c12 (stereo not drawn) + CCN1C(C(=O)NC23CCC(C(=O)O)(CC2)CC3)C(c2cccc(Cl)c2F)C2(C(=O)Nc3cc(Cl)ccc32)C12CCCCC2 | inactive |
